# target or system: Short transient receptor potential channel 6 (Mus musculus)
# Sequence (Q61143 whole entry, the tested form may be a part): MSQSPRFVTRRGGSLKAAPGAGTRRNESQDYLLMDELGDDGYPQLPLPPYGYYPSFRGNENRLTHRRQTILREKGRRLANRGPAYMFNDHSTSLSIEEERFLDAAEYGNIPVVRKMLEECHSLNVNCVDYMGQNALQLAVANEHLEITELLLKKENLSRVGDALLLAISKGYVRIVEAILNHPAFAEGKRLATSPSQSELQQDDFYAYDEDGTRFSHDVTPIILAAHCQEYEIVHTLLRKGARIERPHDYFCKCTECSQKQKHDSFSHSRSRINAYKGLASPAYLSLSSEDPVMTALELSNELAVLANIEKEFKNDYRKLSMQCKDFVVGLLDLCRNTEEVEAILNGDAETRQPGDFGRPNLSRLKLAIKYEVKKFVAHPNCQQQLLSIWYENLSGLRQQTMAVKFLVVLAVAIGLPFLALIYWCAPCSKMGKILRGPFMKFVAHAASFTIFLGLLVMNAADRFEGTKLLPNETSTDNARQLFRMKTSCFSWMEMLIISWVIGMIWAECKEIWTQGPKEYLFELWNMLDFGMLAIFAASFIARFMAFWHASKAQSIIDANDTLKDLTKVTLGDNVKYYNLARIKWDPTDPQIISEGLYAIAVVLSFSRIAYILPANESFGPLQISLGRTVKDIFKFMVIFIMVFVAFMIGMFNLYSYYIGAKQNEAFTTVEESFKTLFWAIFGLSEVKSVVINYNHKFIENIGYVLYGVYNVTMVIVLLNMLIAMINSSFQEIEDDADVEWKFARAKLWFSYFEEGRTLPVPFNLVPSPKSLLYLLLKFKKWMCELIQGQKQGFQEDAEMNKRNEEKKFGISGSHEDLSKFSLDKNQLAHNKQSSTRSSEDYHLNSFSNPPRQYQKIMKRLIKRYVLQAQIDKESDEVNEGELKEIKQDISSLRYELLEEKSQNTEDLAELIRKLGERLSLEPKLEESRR
# test description: Agonist activity at mouse TRPC6 expressed in HEK293 cells co-expressing Gq11-PLCbeta fused M5 receptor assessed as peak current changes at +80 mV by whole cell patch-clamp method
# Type: cell-based
measure name: EC50 (µM)
Kindly provide the numeric value in µM only, without the unit symbol.

Completed entries (count: 2):
test smiles	EC50, µM
Cc1nn2c(O)cc(C3CCN(C(=O)OCc4ccccc4)CC3)nc2c1-c1ccc(F)cc1	3.24
Cc1nn2c(O)cc(C3CCN(C(=O)OCc4ccccc4)CC3)nc2c1-c1ccc(Cl)cc1	2.05

Then this compound:
QUERY: Which EC50 value is on record for CCOC(=O)N1CCC(c2cc(O)n3nc(C)c(-c4ccc(C(F)(F)F)cc4)c3n2)CC1 ?
RESULT: 0.89
